tested-on: mouse MOR (Mus musculus, UniProt P42866)
Sequence (P42866 whole entry): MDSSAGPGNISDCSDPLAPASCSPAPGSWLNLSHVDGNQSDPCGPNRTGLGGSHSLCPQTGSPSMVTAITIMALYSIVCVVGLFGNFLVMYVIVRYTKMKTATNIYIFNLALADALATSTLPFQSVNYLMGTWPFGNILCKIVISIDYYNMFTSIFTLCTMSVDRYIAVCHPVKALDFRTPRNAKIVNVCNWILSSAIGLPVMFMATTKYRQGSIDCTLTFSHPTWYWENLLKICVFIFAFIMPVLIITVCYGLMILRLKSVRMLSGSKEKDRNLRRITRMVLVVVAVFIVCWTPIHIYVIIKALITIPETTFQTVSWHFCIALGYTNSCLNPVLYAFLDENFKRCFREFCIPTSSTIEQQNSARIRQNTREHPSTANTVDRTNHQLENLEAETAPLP
test-details: [35S]-GTPγS functional assay, MOR-CHO membranes
// classify: if (EC50 < 5 nM) condition met else condition not met

Asked: Does this compound meet the criterion EC50 < 5 nM? `O=C(CCc1c[nH]c2ccccc12)N[C@@H]1CC[C@@]2(O)[C@H]3Cc4ccc(O)c5c4[C@@]2(CCN3CC2CC2)[C@H]1O5`
Given back: condition met

Asked: Does this compound meet the criterion EC50 < 5 nM? `O=C(Cc1c[nH]c2ccccc12)N[C@@H]1CC[C@@]2(O)[C@H]3Cc4ccc(O)c5c4[C@@]2(CCN3CC2CC2)[C@H]1O5`
Given back: condition met

Asked: Does this compound meet the criterion EC50 < 5 nM? `O=C(N[C@@H]1CC[C@@]2(O)[C@H]3Cc4ccc(O)c5c4[C@@]2(CCN3CC2CC2)[C@H]1O5)c1cccc2[nH]ccc12`
Given back: condition not met

Asked: Does this compound meet the criterion EC50 < 5 nM? `O=C(N[C@H]1CC[C@@]2(O)[C@H]3Cc4ccc(O)c5c4[C@@]2(CCN3CC2CC2)[C@H]1O5)c1cc2ccccc2[nH]1`
Given back: condition not met

Asked: Does this compound meet the criterion EC50 < 5 nM? `O=C(CCc1c[nH]c2ccccc12)N[C@H]1CC[C@@]2(O)[C@H]3Cc4ccc(O)c5c4[C@@]2(CCN3CC2CC2)[C@H]1O5`
Given back: condition met

---

tested-on: mouse MOR (Mus musculus, UniProt P42866)
test-details: [35S]-GTPγS functional assay, MOR-CHO membranes
Field: EC50. Provide a value for each of the compounds that follow.
Could you give me the number in nM? Just the number is fine.

Asked: I am curious: what EC50 value has been reported for O=C(CCCc1c[nH]c2ccccc12)N[C@@H]1CC[C@@]2(O)[C@H]3Cc4ccc(O)c5c4[C@@]2(CCN3CC2CC2)[C@H]1O5 [Compound 9] ?
Given back: 1.04

Asked: I am curious: what EC50 value has been reported for O=C(CCCc1c[nH]c2ccccc12)N[C@H]1CC[C@@]2(O)[C@H]3Cc4ccc(O)c5c4[C@@]2(CCN3CC2CC2)[C@H]1O5 [Compound 18] ?
Given back: 1.89

Asked: I am curious: what EC50 value has been reported for O=C(N[C@@H]1CC[C@@]2(O)[C@H]3Cc4ccc(O)c5c4[C@@]2(CCN3CC2CC2)[C@H]1O5)c1c[nH]c2ccccc12 [Compound 2] ?
Given back: 0.22

---

tested-on: mouse MOR (Mus musculus, UniProt P42866)
test-details: [35S]-GTPγS functional assay, MOR-CHO membranes
Field: EC50. Provide a value for each of the compounds that follow.
Could you give me the number in nM? Just the number is fine.

Asked: I am curious: what EC50 value has been reported for `O=C(Cc1c[nH]c2ccccc12)N[C@H]1CC[C@@]2(O)[C@H]3Cc4ccc(O)c5c4[C@@]2(CCN3CC2CC2)[C@H]1O5` ?
Given back: 4.75

Asked: I am curious: what EC50 value has been reported for `O=C(N[C@H]1CC[C@@]2(O)[C@H]3Cc4ccc(O)c5c4[C@@]2(CCN3CC2CC2)[C@H]1O5)c1c[nH]c2ccccc12` ?
Given back: 1

Asked: I am curious: what EC50 value has been reported for `O=C(N[C@H]1CC[C@@]2(O)[C@H]3Cc4ccc(O)c5c4[C@@]2(CCN3CC2CC2)[C@H]1O5)c1ccc2cc[nH]c2c1` ?
Given back: 6.06
